- EXPERIMENTAL_SYSTEM: human TGR5 (Homo sapiens)
- Construct: expressed in transfected cells
- Sequence (Q8TDU6 whole entry): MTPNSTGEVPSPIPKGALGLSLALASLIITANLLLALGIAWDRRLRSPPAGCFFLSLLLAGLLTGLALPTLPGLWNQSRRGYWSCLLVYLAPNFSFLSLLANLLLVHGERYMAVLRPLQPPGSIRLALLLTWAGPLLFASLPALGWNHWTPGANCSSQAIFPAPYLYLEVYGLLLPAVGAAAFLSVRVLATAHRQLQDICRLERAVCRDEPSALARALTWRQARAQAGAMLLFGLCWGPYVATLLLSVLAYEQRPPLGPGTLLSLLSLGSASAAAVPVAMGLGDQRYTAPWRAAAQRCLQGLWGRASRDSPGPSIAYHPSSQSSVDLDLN
- EXPERIMENT_SUMMARY: Cell-based TGR5 assay, HEK293 cells stably expressing human TGR5, cAMP by HTRF
- RECORDED_CONDITIONS: HEK293 cells stably expressing human TGR5, 30 min at 37 C, 0.05 nM to 10 μM, read-out: pEC50 Human TGR5 (converted)
- Procedure: Two primary cell based screens were performed. The first utilized HEK293 cells stably transfected to heterologously express human TGR5. The second screen used the human caecum carcinoma cell line NCI-H716 which endogenously expresses human TGR5. In both assays, cells are treated with candidate TGR5 activators and assessed for the increased intercellular levels of cAMP. […] TGR5-mediated cAMP generation was measured using a homogeneous time resolved fluorescence (HTRF) detection method (Cisbio). […]
MEASUREMENT_NAME: EC50

[[record]]
compound = "CN(C[C@H](O)[C@@H](O)[C@H](O)[C@H](O)CO)C(=O)c1cc(NCCCCCc2cc(Cl)c(CN3CSC[C@H]3C(=O)N3CCN(C4CC4)c4ccccc43)cc2Cl)nc(N(C)CCO)n1"
experimental_system = "human TGR5 (Homo sapiens)"
measurement_name = "EC50"
observed = "126 to 1000 nM"

[[record]]
compound = "O=C(N1CCN(C2CC2)c2ccccc21)N1CCCC1Cc1ccccc1Cl (centres unmarked)"
experimental_system = "human TGR5 (Homo sapiens)"
measurement_name = "EC50"
observed = "1260 to 50100 nM"

[[record]]
compound = "O=C([C@@H]1CSCN1Cc1cc(Cl)c(CCCCCNc2nc(N(CCO)CCO)nc(N(CCO)CCO)n2)cc1Cl)N1CCN(C2CC2)c2ccccc21"
experimental_system = "human TGR5 (Homo sapiens)"
measurement_name = "EC50"
observed = "126 to 1000 nM"

[[record]]
compound = "CN(C[C@H](O)[C@@H](O)[C@H](O)[C@H](O)CO)C(=O)NCCCc1cc(Cl)c(OCC2(C(=O)N3CCN(C4CC4)c4ccccc43)CC2)cc1Cl"
experimental_system = "human TGR5 (Homo sapiens)"
measurement_name = "EC50"
observed = "126 to 1000 nM"

[[record]]
compound = "Cc1cccc(CC2CCCN2C(=O)N2CCN(C3CC3)c3ccccc32)c1 (centres unmarked)"
experimental_system = "human TGR5 (Homo sapiens)"
measurement_name = "EC50"
observed = "1260 to 50100 nM"

[[record]]
compound = "CN(C(=O)C1(OCc2cc(Cl)c(CCCCCNC(=O)NC[C@H](O)[C@@H](O)[C@H](O)[C@H](O)CO)cc2Cl)CC1)c1ccccc1OC1CC1"
experimental_system = "human TGR5 (Homo sapiens)"
measurement_name = "EC50"
observed = "< 100 nM"

[[record]]
compound = "CN(CCCCc1cc(Cl)c(OCC2(C(=O)N3CCN(C4CC4)c4ccccc43)CC2)cc1Cl)C[C@H](O)[C@@H](O)[C@H](O)[C@H](O)CO"
experimental_system = "human TGR5 (Homo sapiens)"
measurement_name = "EC50"
observed = "126 to 1000 nM"

[[record]]
compound = "O=C([C@@H]1CSCN1Cc1cc(I)ccc1C(F)(F)F)N1CCN(C2CC2)c2ccccc21"
experimental_system = "human TGR5 (Homo sapiens)"
measurement_name = "EC50"
observed = "126 to 1000 nM"

[[record]]
compound = "CN(C[C@H](O)[C@@H](O)[C@H](O)[C@H](O)CO)C(=O)CCCCc1ccc(Cl)c(CNC2(C(=O)N3CCN(C4CC4)c4ccccc43)CC2)c1 [Example 262]"
experimental_system = "human TGR5 (Homo sapiens)"
measurement_name = "EC50"
observed = "1260 to 50100 nM"

[[record]]
compound = "C[C@@H](NC(=O)[C@@H](C)NC(=O)[C@@H](C)NC(=O)c1ccc(COc2cc(Cl)c(CN3CSC[C@H]3C(=O)N3CCN(C4CC4)c4ccccc43)cc2Cl)cc1)C(=O)O"
experimental_system = "human TGR5 (Homo sapiens)"
measurement_name = "EC50"
observed = "126 to 1000 nM"

[[record]]
compound = "COc1cc(Cl)c(CNC2(C(=O)N3CCN(C4CC4)c4ccccc43)CC2)cc1Cl"
experimental_system = "human TGR5 (Homo sapiens)"
measurement_name = "EC50"
observed = "126 to 1000 nM"

[[record]]
compound = "CC(NCc1cc(Cl)ccc1Cl)C(=O)N1CCN(C2CC2)c2ccccc21 (centres unmarked)"
experimental_system = "human TGR5 (Homo sapiens)"
measurement_name = "EC50"
observed = "126 to 1000 nM"

[[record]]
compound = "O=C(c1nccn1Cc1cc(Cl)ccc1Cl)N1CCN(C2CC2)c2ccccc21"
experimental_system = "human TGR5 (Homo sapiens)"
measurement_name = "EC50"
observed = "1260 to 50100 nM"

[[record]]
compound = "CC(C)(COc1cc(Cl)ccc1Cl)C(=O)N1CCN(C2CC2)c2ccccc21"
experimental_system = "human TGR5 (Homo sapiens)"
measurement_name = "EC50"
observed = "< 100 nM"

[[record]]
compound = "CN(C[C@H](O)[C@H](O)[C@@H](O)[C@H](O)CO)C(=O)c1ccc(CCc2cc(Cl)c(CN3CSC[C@H]3C(=O)N3CCN(C4CC4)c4ccccc43)cc2Cl)cn1"
experimental_system = "human TGR5 (Homo sapiens)"
measurement_name = "EC50"
observed = "126 to 1000 nM"

[[record]]
compound = "O=C(N1CCN(C2CC2)c2ccccc21)C1(NCc2cc(I)ccc2C(F)(F)F)CC1"
experimental_system = "human TGR5 (Homo sapiens)"
measurement_name = "EC50"
observed = "126 to 1000 nM"

[[record]]
compound = "O=C([C@@H]1CSCN1Cc1cc(Cl)c(CN2CSC[C@H]2C(=O)N2CCN(C3CC3)c3ccccc32)cc1Cl)N1CCN(C2CC2)c2ccccc21"
experimental_system = "human TGR5 (Homo sapiens)"
measurement_name = "EC50"
observed = "1260 to 50100 nM"

[[record]]
compound = "O=C(O)CCCOc1cc(Cl)c(CNC2(C(=O)N3CCN(C4CC4)c4ccccc43)CC2)cc1Cl"
experimental_system = "human TGR5 (Homo sapiens)"
measurement_name = "EC50"
observed = "126 to 1000 nM"

[[record]]
compound = "Cn1nc(C(=O)O)cc1OCc1cc(Cl)c(CN2CSC[C@H]2C(=O)N2CCN(C3CC3)c3ccccc32)cc1Cl"
experimental_system = "human TGR5 (Homo sapiens)"
measurement_name = "EC50"
observed = "126 to 1000 nM"

[[record]]
compound = "O=C(CCc1ccc(Cl)c(CNC2(C(=O)N3CCN(C4CC4)c4ccccc43)CC2)c1)NC[C@H](O)[C@@H](O)[C@H](O)[C@H](O)CO"
experimental_system = "human TGR5 (Homo sapiens)"
measurement_name = "EC50"
observed = "1260 to 50100 nM"

[[record]]
compound = "O=C(O)CCc1ccc(Cl)c(CNC2(C(=O)N3CCN(C4CC4)c4ccccc43)CC2)c1"
experimental_system = "human TGR5 (Homo sapiens)"
measurement_name = "EC50"
observed = "126 to 1000 nM"

[[record]]
compound = "O=C(NCCCCc1cc(Cl)c(OCC2(C(=O)N3CCN(C4CC4)c4ccccc43)CC2)cc1Cl)NC[C@H](O)[C@@H](O)[C@H](O)[C@H](O)CO"
experimental_system = "human TGR5 (Homo sapiens)"
measurement_name = "EC50"
observed = "126 to 1000 nM"

[[record]]
compound = "O=C(O)CN1CCN(C(=O)NCCCCCc2cc(Cl)c(CN3CSC[C@H]3C(=O)N3CCN(C4CC4)c4ccccc43)cc2Cl)CC1"
experimental_system = "human TGR5 (Homo sapiens)"
measurement_name = "EC50"
observed = "< 100 nM"

[[record]]
compound = "O=C(N1CCCc2ncccc21)C1(OCc2cc(Cl)ccc2Cl)CC1"
experimental_system = "human TGR5 (Homo sapiens)"
measurement_name = "EC50"
observed = "> 10000 nM"

[[record]]
compound = "CN(C[C@H](O)[C@@H](O)[C@H](O)[C@H](O)CO)C(=O)c1cnn(Cc2cc(Cl)c(CN3CSC[C@H]3C(=O)N3CCN(C4CC4)c4ccccc43)cc2Cl)c1"
experimental_system = "human TGR5 (Homo sapiens)"
measurement_name = "EC50"
observed = "126 to 1000 nM"

[[record]]
compound = "O=C(NC[C@H](O)[C@@H](O)[C@H](O)[C@H](O)CO)c1ccc(OCCCc2cc(Cl)c(CN3CSC[C@H]3C(=O)N3CCN(C4CC4)c4ccccc43)cc2Cl)cc1"
experimental_system = "human TGR5 (Homo sapiens)"
measurement_name = "EC50"
observed = "126 to 1000 nM"


====

- EXPERIMENT_SUMMARY: Compound concentration in gall bladder, LC-MS/MS, 8 h post dose
- Format: in vivo
- RECORDED_CONDITIONS: 30 mg/kg, mice below LLOQ / mice in group
MEASUREMENT_NAME: Number of Mice with Gallbladder Concentration < LLOQ

[[record]]
mol_smiles = "O=C(NCCCCCc1cc(Cl)c(CN2CSC[C@H]2C(=O)N2CCN(C3CC3)c3ccccc32)cc1Cl)N1CCN(CP(=O)(O)O)CC1"
observed = "0/7"

[[record]]
mol_smiles = "CN(C[C@H](O)[C@@H](O)[C@@H](O)[C@H](O)CO)C(=O)CCc1cc(Cl)c(CN2CSC[C@H]2C(=O)N2CCN(C3CC3)c3ccccc32)cc1Cl"
observed = "0/8"

[[record]]
mol_smiles = "Cn1c(C(=O)NC[C@H](O)[C@@H](O)[C@H](O)[C@H](O)CO)cnc1SCc1cc(Cl)c(CN2CSC[C@H]2C(=O)N2CCN(C3CC3)c3ccccc32)cc1Cl"
observed = "0/8"

[[record]]
mol_smiles = "O=C(N1CCN(C2CC2)c2ccccc21)C1(NCc2cc(Cl)cc(O)c2Cl)CC1"
observed = "0/8"

[[record]]
mol_smiles = "O=C(O)CNC(=O)[C@H](CSSC[C@H](NC(=O)CC[C@H](NC(=O)CCCCc1cc(Cl)c(CN2CSC[C@H]2C(=O)N2CCN(C3CC3)c3ccccc32)cc1Cl)C(=O)O)C(=O)NCC(=O)O)NC(=O)CC[C@H](NC(=O)CCCCc1cc(Cl)c(CN2CSC[C@H]2C(=O)N2CCN(C3CC3)c3ccccc32)cc1Cl)C(=O)O"
observed = "8/8"

